B1: Lysine-specific demethylase 2B, residues 656 to 722; numbered along this chain, Q8NHM5 (parent)
chain: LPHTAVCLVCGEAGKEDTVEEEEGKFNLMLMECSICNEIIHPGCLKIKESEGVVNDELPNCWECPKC

variants of: B1; test: abundance fitness (aPCA) (normalised: wild type 0, dead -1); higher = more abundant; growth selection in yeast, the domain comes from the species named; details: Homo sapiens
measured.property: abundance fitness

Worked cases, answers included:
| sequence.entry | measured.property | recorded.result |
| --- | --- | --- |
| LPWTAVCLVCGEAGKEDTVEEEEGKFNLMLMECSICNEIIHPGCLKIKESEGVVNDELPNCWECPKC [H3W] | abundance fitness | -0.572 |
| LPHTAVCLVCGEAGKEDTVEEEEGKFNSMLMECSICNEIIHPGCLKIKESEGVVNDELPNCWECPKC [L28S] | abundance fitness | 0.068 |
| LPHTAVCLVCGEAGKEDTVEEEEGKFNLMLMECSICNEIIHPGCLKIKESEGVVNDELPNCTECPKC [W62T] | abundance fitness | -0.426 |
| LPHTAVCLVCHEAGKEDTVEEEEGKFNLMLMECSICNEIIHPGCLKIKESEGVVNDELPNCWECPKC [G11H] | abundance fitness | -0.362 |
| LPHTAVCLVCGEAGKEDTVEEEEGKFNLMLMECSICNEIIHPGCLKIKESEGVVNDELPNCWECPKH [C67H] | abundance fitness | -0.28 |

Documented abundance fitness of LPHTAVCLVCGEAGKEDTVEEEEGKFNLMLMECSICNEIIHPGCLKIKESEGVVNDEWPNCWECPKC [L58W] : -0.149

Documented abundance fitness of LPHTAVCLVCGEAGKEDTVEEEEGKFNLMLMTCSICNEIIHPGCLKIKESEGVVNDELPNCWECPKC [E32T] : 0.02

Documented abundance fitness of LPHTAVCLVCGEAGKEDTVEEEEGKPNLMLMECSICNEIIHPGCLKIKESEGVVNDELPNCWECPKC [F26P] : -0.165

Documented abundance fitness of LPHTAVCLVCGEAGKEDTVEEEEGKFNLMLMECSICNEIIHPGCLKIKESEGVVNDELPNCWECPPC [K66P] : -0.049
